- Organism: Rattus norvegicus
- ASSAY_NOTES: Inhibitory activity against [3H]norepinephrine (NE) uptake in rat hypothalamus
- Assay type: functional
RECORDED_METRIC: IC50
Answer format: value, then unit.

Query string: Which IC50 value belongs to `CCCN(c1ccncc1)n1ccc2ccccc21` ?
Result string: 270 nM

====

- SYSTEM: Muscarinic acetylcholine receptor M2 (Rattus norvegicus, UniProt P10980)
- Sequence (P10980 whole entry): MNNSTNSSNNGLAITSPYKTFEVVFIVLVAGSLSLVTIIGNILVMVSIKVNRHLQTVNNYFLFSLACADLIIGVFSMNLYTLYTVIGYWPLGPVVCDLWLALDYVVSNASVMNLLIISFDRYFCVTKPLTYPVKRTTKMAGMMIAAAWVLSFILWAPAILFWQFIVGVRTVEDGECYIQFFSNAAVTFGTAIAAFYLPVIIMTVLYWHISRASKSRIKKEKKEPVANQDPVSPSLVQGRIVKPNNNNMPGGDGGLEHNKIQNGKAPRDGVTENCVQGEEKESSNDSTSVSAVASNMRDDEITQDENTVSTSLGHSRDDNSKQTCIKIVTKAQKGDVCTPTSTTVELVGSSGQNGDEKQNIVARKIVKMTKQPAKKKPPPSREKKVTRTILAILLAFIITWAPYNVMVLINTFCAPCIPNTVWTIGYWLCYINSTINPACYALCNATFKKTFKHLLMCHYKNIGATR
- ASSAY_NOTES: Inhibitory activity against [3H]N-methyl-scopolamine binding to Muscarinic acetylcholine receptor M2 in rat cerebellum
- Type: tissue-based
RECORDED_METRIC: IC50

Query string: Which IC50 value belongs to `CCCN(c1ccncc1)n1ccc2ccccc21` ?
Result string: 1000 nM

====

- SYSTEM: Muscarinic acetylcholine receptor
- Assay type: cell membranes, Membrane
- Description: Inhibition of [3H]quinuclidinyl benzilate (QNB) binding from rat forebrain membranes in the absence of Zn
RECORDED_METRIC: IC50 (µM)
Give bare numbers, in µM.

Below, each entry is followed by its recorded IC50 result.
{"MOLECULE": "CCCN(c1ccncc1)n1c2ccccc2c2ccccc21.O=C(O)/C=C/C(=O)O", "SYSTEM": "Muscarinic acetylcholine receptor", "IC50, µM": 5.5}
{"MOLECULE": "CCCN(c1ccncc1)n1cc(C#N)c2ccccc21", "SYSTEM": "Muscarinic acetylcholine receptor", "IC50, µM": 8.6}
{"MOLECULE": "CC(C)N(c1ccncc1)n1ccc2ccccc21", "SYSTEM": "Muscarinic acetylcholine receptor", "IC50, µM": 6}
{"MOLECULE": "CN(c1ccncc1)n1ccc2cc([N+](=O)[O-])ccc21", "SYSTEM": "Muscarinic acetylcholine receptor", "IC50, µM": 29}
{"MOLECULE": "CCCCN(c1ccncc1)n1ccc2ccccc21", "SYSTEM": "Muscarinic acetylcholine receptor", "IC50, µM": 4}
{"MOLECULE": "CCCN(c1ccncc1)n1cc2ccccc2n1", "SYSTEM": "Muscarinic acetylcholine receptor", "IC50, µM": 91}
{"MOLECULE": "O=C1CCCN1CC#CCN1CCCC1 [OXOTREMORINE]", "SYSTEM": "Muscarinic acetylcholine receptor", "IC50, µM": 2.7}
{"MOLECULE": "c1ccc2c(c1)ccn2Nc1ccncc1", "SYSTEM": "Muscarinic acetylcholine receptor", "IC50, µM": 40}
{"MOLECULE": "CCCN(c1ccncn1)n1ccc2ccccc21", "SYSTEM": "Muscarinic acetylcholine receptor", "IC50, µM": 391}
{"MOLECULE": "COc1ccc2c(ccn2Nc2ccncc2)c1", "SYSTEM": "Muscarinic acetylcholine receptor", "IC50, µM": 44}

Go through the items and report each one's IC50.
1. c1ccc2c(c1)ccn2Cc1ccncc1
2. Cc1cn(Nc2ccncc2)c2ccccc12
3. CCCC(c1ccncc1)n1ccc2ccccc21 (configuration not stated)
4. CCCN(c1ccncc1)n1cc(CC)c2ccccc21
5. C=CCN(c1ccncc1)n1ccc2ccccc21
6. CCN(c1ccncc1)n1ccc2ccccc21

Result string:
1. 223
2. 82
3. 142
4. 2.7
5. 7.3
6. 10
